Hello, the source for this data is patent US11957683B2, in case you need it.

- Tested on: HepG2.117 cells
- MEASUREMENT DESCRIPTION: Cell viability by CellTiter-Glo 2.0 (intracellular ATP) in HepG2.117 cells
- Type: cell-based
- CONDITIONS: CellTiter-Glo 2.0, HepG2.117 cells, 3 days incubation

MOLECULE: C=C[C@H](C)Nc1nc2c(c(=O)n1-c1ccc(C(=O)NC)cc1Cl)C[C@@H](C)N(C(=O)c1ccc(Br)c(C(F)(F)F)c1)C2 (atropisomer, axis not shown) [Compound 45]
TGT: HepG2.117 cells
VALUE RELATION SIGN: =
CC50 (µM): 30.1

MOLECULE: C=CC(C)Nc1nc2c(c(=O)n1-c1ccc(C(=O)NC)cc1)C[C@@H](C)N(C(=O)c1ccc(Br)c(C(F)(F)F)c1)C2 (single isomer, unassigned) [Compound 2b]
TGT: HepG2.117 cells
VALUE RELATION SIGN: >
CC50 (µM): 0.5

MOLECULE: C=C[C@H](C)Nc1nc2c(c(=O)n1-c1cc3ncn(C)c3cc1F)C[C@@H](C)N(C(=O)c1ccc(Br)c(C(F)(F)F)c1)C2 [Compound 32b]
TGT: HepG2.117 cells
VALUE RELATION SIGN: =
CC50 (µM): 21.9

MOLECULE: C=CC(C)Nc1nc2c(c(=O)n1-c1ccc(-c3[nH]nnc3C)cc1)C[C@@H](C)N(C(=O)c1ccc(Br)c(C(F)(F)F)c1)C2 (single isomer, unassigned) [Compound 3b]
TGT: HepG2.117 cells
VALUE RELATION SIGN: >
CC50 (µM): 0.5

* * *

- MEASUREMENT DESCRIPTION: Cell viability by CellTiter-Glo 2.0 (intracellular ATP) in HepG2.117 cells
- Format: cell-based
- CONDITIONS: human, CellTiter-Glo 2.0, HepG2.117 cells, 3 days incubation
CC50 at 3 days less than 30 µM is Y; CC50 at 3 days greater than or equal to 30 µM is N.

MOLECULE: C=C[C@H](C)Nc1nc2c(c(=O)n1-c1ccc3c(c1)nnn3C)C[C@@H](C)N(C(=O)c1ccc(Br)c(C(F)(F)F)c1)C2 [Compound 13]
GROUP LABEL: N
--
MOLECULE: CNC(=O)c1ccc(-n2c(C#CCC(C)C)nc3c(c2=O)C[C@@H](C)N(C(=O)c2ccc(Br)c(C(F)(F)F)c2)C3)cc1 [Compound 23]
GROUP LABEL: Y
--
MOLECULE: C=C[C@H](C)Nc1nc2c(c(=O)n1-c1ccc(-c3cnn(C)c3)cc1)C[C@@H](C)N(C(=O)c1ccc(Br)c(C(F)(F)F)c1)C2 [Compound 27]
GROUP LABEL: Y
--
MOLECULE: C=CCNc1nc2c(c(=O)n1-c1ccc(C(=O)NC)cc1)C[C@@H](C)N(C(=O)c1ccc(Br)c(C(F)(F)F)c1)C2 [Compound 5]
GROUP LABEL: N

* * *

CC50 at 3 days for assorted compounds
- MEASUREMENT DESCRIPTION: Cell viability by CellTiter-Glo 2.0 (intracellular ATP) in HepG2.117 cells
- Format: cell-based
- CONDITIONS: human, CellTiter-Glo 2.0, HepG2.117 cells, 3 days incubation

SMILES CODE: C=C[C@H](C)Nc1nc2c(c(=O)n1-c1ccc3c(c1)ncn3CC(F)(F)F)C[C@@H](C)N(C(=O)c1ccc(Br)c(C(F)(F)F)c1)C2
CC50 at 3 days: 28.5 µM
//
SMILES CODE: C=C[C@@H](C)Nc1nc2c(c(=O)n1-c1ccc(-c3nncn3C)cc1)C[C@@H](C)N(C(=O)c1ccc(Br)c(C(F)(F)F)c1)C2
CC50 at 3 days: > 50 µM
//
SMILES CODE: C=C[C@H](C)Nc1nc2c(c(=O)n1-c1ccc3c(ncn3C)n1)C[C@@H](C)N(C(=O)c1ccc(Br)c(C(F)(F)F)c1)C2
CC50 at 3 days: > 50 µM
